- Procedure text: Induction of apoptosis in human LO2 cells assessed as viable cells at 1.2 uM after 72 hrs by Annexin V-FITC/7-AAD or propidium iodide staining-based flow cytometric analysis (reference value: 94.26%)
- Assay type: cell-based, L02
- Assay context: read-out: Activity
Parameter measured: viability at 72 h, 1.2 µM (%)
# value in %; strip the unit string

# lookup: viability at 72 h, 1.2 µM of O=C(NCCCOc1no[n+]([O-])c1S(=O)(=O)c1ccccc1)[C@H]1O[C@@H](Oc2cc3oc(-c4ccc(OCc5ccccc5)cc4)cc(=O)c3c(O)c2OCc2ccccc2)[C@H](O)[C@@H](O)[C@@H]1O
81.5

====

- Procedure text: Drug metabolism in pH 7.4 phosphate buffer solution assessed as NO release at 10^-5 M after 0.5 hrs in presence of L-cysteine by Griess assay
- Format: physicochemical
- Assay context: pH 7.4, 0.5 h, 10 µM
Reported Drug metabolism values follow for various compounds
# value in µmol/L; strip the unit string

Consider the following illustrative entries.
# lookup: Drug metabolism of COc1ccc(-c2cc(=O)c3c(O)c(OC)c(O[C@@H]4O[C@H](C(=O)OCCO[N+](=O)[O-])[C@@H](O)[C@H](O)[C@H]4O)cc3o2)cc1
1.97

# lookup: Drug metabolism of COc1ccc(-c2cc(=O)c3c(O)c(OC)c(O[C@@H]4O[C@H](C(=O)NCCCOc5no[n+]([O-])c5S(=O)(=O)c5ccccc5)[C@@H](O)[C@H](O)[C@H]4O)cc3o2)cc1
15.54

# lookup: Drug metabolism of COc1ccc(-c2cc(=O)c3c(O)c(OC)c(O[C@@H]4O[C@H](C(=O)N5CCN(CCOc6no[n+]([O-])c6S(=O)(=O)c6ccccc6)CC5)[C@@H](O)[C@H](O)[C@H]4O)cc3o2)cc1
20.78

# lookup: Drug metabolism of O=C([C@H]1O[C@@H](Oc2cc3oc(-c4ccc(OCc5ccccc5)cc4)cc(=O)c3c(O)c2OCc2ccccc2)[C@H](O)[C@@H](O)[C@@H]1O)N1CCN(CCOc2no[n+]([O-])c2S(=O)(=O)c2ccccc2)CC1
11.74

---
# lookup: Drug metabolism of CC(CNC(=O)[C@H]1O[C@@H](Oc2cc3oc(-c4ccc(OCc5ccccc5)cc4)cc(=O)c3c(O)c2OCc2ccccc2)[C@H](O)[C@@H](O)[C@@H]1O)Oc1no[n+]([O-])c1S(=O)(=O)c1ccccc1 (stereo not given in full)
13.91

====

- Procedure text: Drug metabolism in pH 7.4 phosphate buffer solution assessed as NO release at 10^-5 M after 3 hrs in presence of L-cysteine by Griess assay
- Format: physicochemical
- Assay context: pH 7.4, 3 h, 10 µM
Parameter measured: log10(Drug metabolism) (log10 of the value in µmol/L)
Note the log scale: values are log10 of Drug metabolism expressed in µmol/L.

# lookup: log10(Drug metabolism) of CC(CNC(=O)[C@H]1O[C@@H](Oc2cc3oc(-c4ccc(OCc5ccccc5)cc4)cc(=O)c3c(O)c2OCc2ccccc2)[C@H](O)[C@@H](O)[C@@H]1O)Oc1no[n+]([O-])c1S(=O)(=O)c1ccccc1 (some centres not stated)
1.28

# lookup: log10(Drug metabolism) of O=C([C@H]1O[C@@H](Oc2cc3oc(-c4ccc(OCc5ccccc5)cc4)cc(=O)c3c(O)c2OCc2ccccc2)[C@H](O)[C@@H](O)[C@@H]1O)N1CCN(CCOc2no[n+]([O-])c2S(=O)(=O)c2ccccc2)CC1
1.38

# lookup: log10(Drug metabolism) of COc1ccc(-c2cc(=O)c3c(O)c(OC)c(O[C@@H]4O[C@H](C(=O)OCCO[N+](=O)[O-])[C@@H](O)[C@H](O)[C@H]4O)cc3o2)cc1
0.25

# lookup: log10(Drug metabolism) of COc1ccc(-c2cc(=O)c3c(O)c(OC)c(O[C@@H]4O[C@H](C(=O)NCC(C)Oc5no[n+]([O-])c5S(=O)(=O)c5ccccc5)[C@@H](O)[C@H](O)[C@H]4O)cc3o2)cc1 (some centres not stated)
1.65

# lookup: log10(Drug metabolism) of COc1ccc(-c2cc(=O)c3c(O)c(OC)c(O[C@@H]4O[C@H](C(=O)N5CCN(CCOc6no[n+]([O-])c6S(=O)(=O)c6ccccc6)CC5)[C@@H](O)[C@H](O)[C@H]4O)cc3o2)cc1
1.60

---
# lookup: log10(Drug metabolism) of O=C(OCCO[N+](=O)[O-])[C@H]1O[C@@H](Oc2cc3oc(-c4ccc(OCc5ccccc5)cc4)cc(=O)c3c(O)c2OCc2ccccc2)[C@H](O)[C@@H](O)[C@@H]1O
0.70

# lookup: log10(Drug metabolism) of COc1ccc(-c2cc(=O)c3c(O)c(OC)c(O[C@@H]4O[C@H](C(=O)NCCOc5no[n+]([O-])c5S(=O)(=O)c5ccccc5)[C@@H](O)[C@H](O)[C@H]4O)cc3o2)cc1
1.77
